# credit: the PETadex activity labels (doi:10.1038/s41467-025-61599-z)

- assay_procedure: Proxy for plastic degradation [UPLC/UHPLC]
- setup_conditions: pH 9; 30 °C
measured_endpoint: Proxy for plastic degradation (µM)
One number for each entry, in µM.

// solved cases for Proxy for plastic degradation follow
Prompt line: Query (protein): unnamed (protein) MRARIAALVAVPFLGAGAFAVSSVAAGDPPAVRTVPAAAAAPVDWSKTGPHQVKVDKADAHTIYRPSDLGSGGVKNPVVIWGNGTGATPAAYDGLLRHWASHGFVVAAANTKQANNGNAMRAGLDLVTKWNTTSSSPYYGKVDVSRVASSGHSQGGAGAMNAAVDTRVDAVLPIQPGPLAAPRKFKQPTFYMAGQNDRVVWPSWVRNFYNKSGHLPAVFGVVRGATHVAPAGDGGAFRGPTTAWLSFTLRGDASARAQFAGASCGYCGASSPFSNWLRNTRFTSQNG ; field requested: Proxy for plastic degradation
Response line: 12.7

Prompt line: Query (protein): unnamed (protein) MKTNRRTLMLTGIAMTIGTAGRAAQATPEFKPQPGPLSIKSAAAISFRVEDQAKDLQIRVTYPDGPGPWPAIIFSHGAMSSKDFYNRVADHWATHGYATILPTHLDSESLGYSFKNPLPREKVFFGRIGDMQFILNHLDEIAGKAGIAGKIEKTKLAVAGHSFGGWTSLILAGLPVKMPDGSLKSFADSRIKALVSYNGIGPMDEIPDAAWAKVAIPVFAASGTNDPGATGSGPVHPWRWRIGAYDYAGSKEKYAVSITMGDHYYGGLICREGAGGKPDPEGLSFVNGSSTAFMDAYLKDDKSAKKFLRTADLRPLTNDRAFLERS ; field requested: Proxy for plastic degradation
Response line: 15.7

Now look at this entry.
Prompt line: Query (protein): unnamed (protein) MGGGGEDNVFAEPGDFDVVTEPGGRDCTIFRPEQLGDDHAVVIWGNGTGASPNTYAGLLRHYASHGFVVVAANTSNAGTGEDMLNCLDFLEGSQLASSVDFSKVGATGHSQGGGGAIMAGVDPRIATTAPIEGFTLGLGHDRDSHDQQNGPMLILSGSADRLVNPRTNHAPLFDATNVPAFWAIAQGAGHFEPVGDGGDFRGISTAWFLFQLEDDPEATTHFVGDDCFVCEDPGFDVEGVKEID ; field requested: Proxy for plastic degradation
Response line: 14
